molecular target: human ALX receptor (Homo sapiens); assay: Intracellular calcium measurements (FLIPR) in HEK293-hALXR-Gα16 cells, agonistic activity; settings: values normalized to WKYMVm 10 nM
EXPERIMENTAL_READOUT: EC50 (µM)

Study these solved cases before continuing.
O=C(OCCN1CCCC1=O)[C@H]1[C@H](C(=O)Nc2ccc(Br)nc2)[C@@H]2CC[C@H]1C21CC1 [Example 23]; 0.281
O=C(OC1CCNCC1)[C@H]1[C@H](C(=O)Nc2ccc(Br)nc2)[C@@H]2CC[C@H]1C21CC1 [Example 2]; 0.0151

P: Cc1cc(CNC(=O)[C@H]2[C@H](C(=O)OCCC3(F)CCNCC3)[C@H]3CC[C@@H]2C32CC2)no1 [Example 58]
Q: NC(=O)CCOC(=O)[C@H]1[C@H](C(=O)Nc2ccc(Br)nc2)[C@@H]2CC[C@H]1C21CC1 [Example 68]
R: O=C(OCCC1CCNCC1)[C@H]1[C@H](C(=O)Nc2ccc(Br)nc2)[C@@H]2CC[C@H]1C21CC1 [Example 36]
Form: Sort by [EC50] Order [ ascending ] Answer format: the labels, ordered as requested.
R, P, Q
(R: 0.0004 µM, P: 0.0367 µM, Q: 0.135 µM)

P: O=C(OC[C@H]1CCNC[C@H]1F)[C@H]1[C@H](C(=O)Nc2ccc(Br)nc2)[C@@H]2CC[C@H]1C21CC1 (relative stereo) [Example 64]
Q: O=C(OCC1CCNCC1)[C@H]1[C@H](C(=O)Nc2ccc(Br)nc2)[C@@H]2CC[C@H]1C21CC1 [Example 41]
Between these two entries, P and Q , state which has the higher EC50. Your answer should be the label attached to the chosen record.
P

###

molecular target: human ALX receptor (Homo sapiens, UniProt P25090); test: Intracellular calcium measurements (FLIPR) in HEK293-hALXR-Gα16 cells, agonistic activity; settings: values normalized to WKYMVm 10 nM
EXPERIMENTAL_READOUT: EC50 (nM)

O=C(OC1CCNCC1(F)F)[C@H]1[C@H](C(=O)Nc2ccc(Br)nc2)[C@@H]2CC[C@H]1C21CC1 (stereo partly shown); 28.2
CN1C(C)(C)CC(OC(=O)[C@H]2[C@H](C(=O)Nc3ccc(Br)nc3)[C@@H]3CC[C@H]2C32CC2)CC1(C)C; 753
CC(CC(F)(F)CN1CCCC1)OC(=O)[C@H]1[C@H](C(=O)Nc2ccc(Br)nc2)[C@@H]2CC[C@H]1C21CC1 (stereo partly shown); 1750

P: O=C(OC1CCN(Cc2ccccc2)CC1)[C@H]1[C@H](C(=O)Nc2ccc(Br)nc2)[C@@H]2CC[C@H]1C21CC1
Q: Cc1cc(CNC(=O)[C@H]2[C@H](C(=O)O[C@H]3CCNC[C@H]3F)[C@H]3CC[C@@H]2C32CC2)on1 (relative stereo)
R: Cc1cc(CNC(=O)[C@H]2[C@H](C(=O)OCC3CCCCN3C)[C@H]3CC[C@@H]2C32CC2)no1 (stereo partly shown)
S: O=C(OCCCCN1CC[C@H](F)C1)[C@H]1[C@H](C(=O)Nc2ccc(Br)nc2)[C@@H]2CC[C@H]1C21CC1
Form: Sort by [EC50] Order [ ascending ] Answer format: the labels, ordered as requested.
S, Q, R, P
(S: 11.9 nM, Q: 77.5 nM, R: 406 nM, P: 2060 nM)

###

target: human ALX receptor (Homo sapiens); test: Intracellular calcium measurements (FLIPR) in HEK293-hALXR-Gα16 cells, agonistic activity; details: values normalized to WKYMVm 10 nM
pEC50: −log10 of the molar value.
EXPERIMENTAL_READOUT: pEC50

Study these solved cases before continuing.
Cc1cc(CNC(=O)[C@H]2[C@H](C(=O)OCC3(F)CCNCC3)[C@H]3CC[C@@H]2C32CC2)no1; 7.38
Cc1cc(CNC(=O)[C@H]2[C@H](C(=O)OCC[C@@H]3CCCCN3)[C@H]3CC[C@@H]2C32CC2)no1; 6.93
Cc1cc(CNC(=O)[C@H]2[C@H](C(=O)OC3CCNCC3(F)F)[C@H]3CC[C@@H]2C32CC2)on1 (some centres unmarked); 7.30

A: Cc1cc(CNC(=O)[C@H]2[C@H](C(=O)OCC[C@H]3CCNC[C@H]3F)[C@H]3CC[C@@H]2C32CC2)on1 (relative stereo)
B: Cc1cc(CNC(=O)[C@H]2[C@H](C(=O)OC3CCN(C)C3)[C@H]3CC[C@@H]2C32CC2)no1 (some centres unmarked)
Between these two entries, A and B , state which has the higher pEC50. Your answer should be the label attached to the chosen record.
A

###

molecular target: human ALX receptor (Homo sapiens, UniProt P25090); experiment: Intracellular calcium measurements (FLIPR) in HEK293-hALXR-Gα16 cells, agonistic activity; conditions: values normalized to WKYMVm 10 nM
EXPERIMENTAL_READOUT: EC50 (µM)

O=C(OCCOCCN1CC[C@H](F)C1)[C@H]1[C@H](C(=O)Nc2ccc(Br)nc2)[C@@H]2CC[C@H]1C21CC1 [Example 48]; 0.0099
Cc1cc(CNC(=O)[C@H]2[C@H](C(=O)OCCC3CCNCC3(F)F)[C@H]3CC[C@@H]2C32CC2)on1 (some centres unmarked) [Example 66]; 0.113
Cc1cc(CNC(=O)[C@H]2[C@H](C(=O)OCCN3CCNCC3)[C@H]3CC[C@@H]2C32CC2)no1 [Example 63]; 0.079
O=C(OC1CNC1)[C@H]1[C@H](C(=O)Nc2ccc(Br)nc2)[C@@H]2CC[C@H]1C21CC1 [Example 24]; 0.289
Cc1cc(CNC(=O)[C@H]2[C@H](C(=O)O[C@@H]3CCNC[C@H]3F)[C@H]3CC[C@@H]2C32CC2)on1 (relative stereo) [Example 46]; 0.0097
CN1CCCCC1COC(=O)[C@H]1[C@H](C(=O)Nc2ccc(Br)nc2)[C@@H]2CC[C@H]1C21CC1 (some centres unmarked) [Example 22]; 0.217

A: O=C(OCC1(F)CCNCC1)[C@H]1[C@H](C(=O)Nc2ccc(Br)nc2)[C@@H]2CC[C@H]1C21CC1 [Example 55]
B: O=C(OCCCC(F)(F)CN1CCCC1)[C@H]1[C@H](C(=O)Nc2ccc(Br)nc2)[C@@H]2CC[C@H]1C21CC1 [Example 78]
Between these two entries, A and B , state which has the higher EC50. Your answer should be the label attached to the chosen record.
B

a: O=C(OCCOCCN1CCC(F)(F)C1)[C@H]1[C@H](C(=O)Nc2ccc(Br)nc2)[C@@H]2CC[C@H]1C21CC1 [Example 75]
b: Cc1cc(CNC(=O)[C@H]2[C@H](C(=O)OCCC(N)=O)[C@H]3CC[C@@H]2C32CC2)on1 [Example 65]
c: O=C(OC1CCCNC1)[C@H]1[C@H](C(=O)Nc2ccc(Br)nc2)[C@@H]2CC[C@H]1C21CC1 (some centres unmarked) [Example 9]
d: CCCOC(=O)[C@H]1[C@H](C(=O)NCc2cc(C)on2)[C@@H]2CC[C@H]1C21CC1 [Example 30]
Order these by EC50, descending, and give the full ranking. Answer format: the labels, ordered as requested.
d, a, b, c

A: Cc1cc(CNC(=O)[C@H]2[C@H](C(=O)OCC3CCCNC3)[C@H]3CC[C@@H]2C32CC2)no1 (some centres unmarked) [Example 18]
B: O=C(OCCOCCN1CC[C@H](F)C1)[C@H]1[C@H](C(=O)NCc2ccc(Br)cc2F)[C@@H]2CC[C@H]1C21CC1 [Example 69]
Please indicate which item has the smaller measured EC50: A versus B Your answer should be the label attached to the chosen record.
A

###

Molecular target: human ALX receptor (Homo sapiens, UniProt P25090)
Sequence (P25090 1-351): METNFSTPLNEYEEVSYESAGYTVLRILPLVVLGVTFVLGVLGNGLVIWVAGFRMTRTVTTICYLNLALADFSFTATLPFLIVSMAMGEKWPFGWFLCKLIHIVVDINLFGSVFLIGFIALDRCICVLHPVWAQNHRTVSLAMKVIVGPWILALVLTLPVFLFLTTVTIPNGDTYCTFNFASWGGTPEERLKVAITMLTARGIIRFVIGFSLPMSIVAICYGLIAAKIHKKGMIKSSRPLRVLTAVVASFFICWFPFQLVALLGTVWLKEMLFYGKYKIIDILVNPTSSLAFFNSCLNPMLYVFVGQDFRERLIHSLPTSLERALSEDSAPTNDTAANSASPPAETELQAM
Test: Intracellular calcium measurements (FLIPR) in HEK293-hALXR-Gα16 cells, agonistic activity
Conditions: values normalized to WKYMVm 10 nM
EXPERIMENTAL_READOUT: EC50 (nM)

I: O=C(O[C@H]1CCNC[C@H]1F)[C@H]1[C@H](C(=O)Nc2ccc(Br)nc2)[C@@H]2CC[C@H]1C21CC1 (relative stereo)
II: O=C(O[C@@H]1CCNC1)[C@H]1[C@H](C(=O)Nc2ccc(Br)nc2)[C@@H]2CC[C@H]1C21CC1
III: Cc1cc(CNC(=O)[C@H]2[C@H](C(=O)O[C@@H]3CCNC3)[C@H]3CC[C@@H]2C32CC2)no1
Arrange the 3 molecules from largest to smallest EC50. Answer format: the labels, ordered as requested.
I, III, II
(I: 280 nM, III: 105 nM, II: 17.9 nM)
